Assay: chemical genetic growth profiling, strain panel (AID 1159580);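 further: tested at 20 µM; growth read once vehicle control cultures reached saturation at 30 °C; 1 = growth at the plate median or of vehicle wells; lower values mean less growth of the strain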
Settings: S. cerevisiae deletion strains, growth OD, locus YMR307W, strain GAS1, hits give low values
In all, about 5,500 compounds went through this assay and about 2,000 (36%) were called active. Not shown: some 18% with an inconclusive outcome. The list shows a part of the results.
OBSERVED PROPERTY: normalized growth
Would you mind answering with just the numeric figure?

Example results:
| COMPOUND | normalized growth |
| --- | --- |
| CN1CCCN=C1COC(=O)C(O)(c1ccccc1)C1CCCCC1 (configuration not stated) | 1.03 |
| O=C(O)c1c2ccccc2cc2ccccc12 | 1.13 |
| CC(C)C[C@H](NC(=O)[C@H](O)[C@H](N)Cc1ccccc1)C(=O)O | 0.986 |
| c1ccc2sc(C3(N4CCCCC4)CCCCC3)cc2c1 | 0.976 |
| CCOC(=O)CSC(=S)NCc1ccc(C)cc1 | 0.109 |

Task: # input compound: CCOC(=O)C(C)(C)Oc1ccc(Cl)cc1 ; wanted: its normalized growth
Result: 0.996

Task: Okay, and COc1ccc(C2=C(C(C)=O)C(C)=NC(=S)C2C#N)cc1 (configuration not stated) ?
Result: 0.702

Task: Further, for CCOC(=O)C(Cc1ccc(O)cc1)NC(C)=O (configuration not stated) ?
Result: 1.06
